Catalogue of compounds with associated pKi
target: Phenylethanolamine N-methyltransferase (Bos taurus, UniProt P10938); experiment: Affinity for bovine Phenylethanolamine N-Methyltransferase (PNMT)
Sequence (P10938 whole entry): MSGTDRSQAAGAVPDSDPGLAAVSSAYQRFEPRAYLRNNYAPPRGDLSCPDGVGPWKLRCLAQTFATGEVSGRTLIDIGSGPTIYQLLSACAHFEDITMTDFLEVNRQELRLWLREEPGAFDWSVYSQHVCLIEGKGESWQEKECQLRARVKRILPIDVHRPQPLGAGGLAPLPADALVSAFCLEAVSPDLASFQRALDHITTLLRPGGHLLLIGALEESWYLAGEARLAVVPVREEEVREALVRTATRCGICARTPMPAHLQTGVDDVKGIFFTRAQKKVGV
pKi: −log10 of the molar value.
ENDPOINT LABEL: pKi

compound="FCC1Cc2ccc(C(F)(F)F)cc2CN1 (stereo not given)" endpoint_label=pKi reported_measurement=6.49
compound="FCC1Cc2ccc(Br)cc2CN1 (stereo not given)" endpoint_label=pKi reported_measurement=6.19
compound="FCC1Cc2ccc(N=C=S)cc2CN1 (stereo not given)" endpoint_label=pKi reported_measurement=6.24
compound="FCC1Cc2ccccc2CN1 (stereo not given)" endpoint_label=pKi reported_measurement=5.82
compound="[N-]=[N+]=Nc1ccc2c(c1)CNC(CF)C2 (stereo not given)" endpoint_label=pKi reported_measurement=5.77

----------
Catalogue of molecules with associated Ratio
target: Adrenergic receptor alpha-2 (Rattus norvegicus) (UniProt P22086+P19328+P22909); experiment: Ratio for binding affinity towards alpha-2 adrenoceptor to PNMT; type: protein assay
ENDPOINT LABEL: Ratio

molecule="[N-]=[N+]=Nc1ccc2c(c1)CNC(CF)C2 (stereo not drawn)" measured_on="Adrenergic receptor alpha-2 (Rattus norvegicus) (UniProt P22086+P19328+P22909)" reported_measurement=28
molecule="NS(=O)(=O)c1ccc2c(c1)CNC(CF)C2 (stereo not drawn)" measured_on="Adrenergic receptor alpha-2 (Rattus norvegicus) (UniProt P22086+P19328+P22909)" reported_measurement=1000
molecule="FCC1Cc2ccc(N=C=S)cc2CN1 (stereo not drawn)" measured_on="Adrenergic receptor alpha-2 (Rattus norvegicus) (UniProt P22086+P19328+P22909)" reported_measurement=39
molecule="N#Cc1ccc2c(c1)CNC(CF)C2 (stereo not drawn)" measured_on="Adrenergic receptor alpha-2 (Rattus norvegicus) (UniProt P22086+P19328+P22909)" reported_measurement=420
molecule="NS(=O)(=O)c1ccc2c(c1)CNC(CO)C2 (stereo not drawn)" measured_on="Adrenergic receptor alpha-2 (Rattus norvegicus) (UniProt P22086+P19328+P22909)" reported_measurement=4100
molecule="O=[N+]([O-])c1ccc2c(c1)CNC(CF)C2 (stereo not drawn)" measured_on="Adrenergic receptor alpha-2 (Rattus norvegicus) (UniProt P22086+P19328+P22909)" reported_measurement=140
molecule="CC1Cc2ccccc2CN1 (stereo not drawn)" measured_on="Adrenergic receptor alpha-2 (Rattus norvegicus) (UniProt P22086+P19328+P22909)" reported_measurement=0.36
molecule=Clc1ccc2c(c1Cl)CNCC2 measured_on="Adrenergic receptor alpha-2 (Rattus norvegicus) (UniProt P22086+P19328+P22909)" reported_measurement=0.095
molecule="OCC1Cc2ccccc2CN1 (stereo not drawn)" measured_on="Adrenergic receptor alpha-2 (Rattus norvegicus) (UniProt P22086+P19328+P22909)" reported_measurement=6
molecule="O=S(=O)(NCc1ccccc1)c1ccc2c(c1)CNC(CF)C2 (stereo not drawn)" measured_on="Adrenergic receptor alpha-2 (Rattus norvegicus) (UniProt P22086+P19328+P22909)" reported_measurement=17
molecule="CS(=O)(=O)c1ccc2c(c1)CNC(CO)C2 (stereo not drawn)" measured_on="Adrenergic receptor alpha-2 (Rattus norvegicus) (UniProt P22086+P19328+P22909)" reported_measurement=1000
molecule="O=S(=O)(Nc1ccc(Cl)cc1)c1ccc2c(c1)CNC(CF)C2 (stereo not drawn)" measured_on="Adrenergic receptor alpha-2 (Rattus norvegicus) (UniProt P22086+P19328+P22909)" reported_measurement=220
molecule="CCC1Cc2ccccc2CN1 (stereo not drawn)" measured_on="Adrenergic receptor alpha-2 (Rattus norvegicus) (UniProt P22086+P19328+P22909)" reported_measurement=0.028
molecule="CS(=O)(=O)c1ccc2c(c1)CNC(C(F)(F)F)C2 (stereo not drawn)" measured_on="Adrenergic receptor alpha-2 (Rattus norvegicus) (UniProt P22086+P19328+P22909)" reported_measurement=110
molecule="FCC1Cc2ccc(Br)cc2CN1 (stereo not drawn)" measured_on="Adrenergic receptor alpha-2 (Rattus norvegicus) (UniProt P22086+P19328+P22909)" reported_measurement=10
molecule="CNS(=O)(=O)c1ccc2c(c1)CNC(CF)C2 (stereo not drawn)" measured_on="Adrenergic receptor alpha-2 (Rattus norvegicus) (UniProt P22086+P19328+P22909)" reported_measurement=130
molecule="COCC1Cc2ccccc2CN1 (stereo not drawn)" measured_on="Adrenergic receptor alpha-2 (Rattus norvegicus) (UniProt P22086+P19328+P22909)" reported_measurement=0.3
molecule=COc1ccc2c3c([nH]c2c1)C=NCC3 measured_on="Adrenergic receptor alpha-2 (Rattus norvegicus) (UniProt P22086+P19328+P22909)" reported_measurement=4.4
molecule="CS(=O)(=O)c1ccc2c(c1)CNC(CF)C2 (stereo not drawn)" measured_on="Adrenergic receptor alpha-2 (Rattus norvegicus) (UniProt P22086+P19328+P22909)" reported_measurement=140
molecule="FCC1Cc2ccccc2CN1 (stereo not drawn)" measured_on="Adrenergic receptor alpha-2 (Rattus norvegicus) (UniProt P22086+P19328+P22909)" reported_measurement=2.5
molecule="FC(F)(F)C1Cc2ccc(Br)cc2CN1 (stereo not drawn)" measured_on="Adrenergic receptor alpha-2 (Rattus norvegicus) (UniProt P22086+P19328+P22909)" reported_measurement=1900
molecule="FCC1Cc2ccc(I)cc2CN1 (stereo not drawn)" measured_on="Adrenergic receptor alpha-2 (Rattus norvegicus) (UniProt P22086+P19328+P22909)" reported_measurement=34
molecule="FCC1Cc2ccc(C(F)(F)F)cc2CN1 (stereo not drawn)" measured_on="Adrenergic receptor alpha-2 (Rattus norvegicus) (UniProt P22086+P19328+P22909)" reported_measurement=130
